viability at 5000 µM values by entry
# Test system: Hepatocytes
# MEASUREMENT DESCRIPTION: Viability of post-anaerobic hepatocytes (fraction of cytosolic lactate dehydrogenase retained intracellularly)
# Format: cell-based, rat
# TEST SETTINGS: Rattus norvegicus, Hepatocyte, 1.5 h; single amino carboxylic acid at 5 mM; 90 min anaerobic, then 90 minute aerobic incubation at 37° C.; untreated 0.25; read-out: SURVIVING FRACTION
# output: bare number, implied unit %

C[C@H](N)C(=O)O [Alanine, alanine]; 51
O=C(O)[C@@H]1CCCN1 [Proline, proline]; 49

Turning now to a further molecule:
Task: Tell us which viability at 5000 µM value is on record for N[C@@H](Cc1c[nH]cn1)C(=O)O [Histidine, histidine]
Result: 50
